Entries and their IC50
- target.or.system: MMP-2 (Homo sapiens, UniProt P08253)
- Sequence (P08253 110-660, species assumed): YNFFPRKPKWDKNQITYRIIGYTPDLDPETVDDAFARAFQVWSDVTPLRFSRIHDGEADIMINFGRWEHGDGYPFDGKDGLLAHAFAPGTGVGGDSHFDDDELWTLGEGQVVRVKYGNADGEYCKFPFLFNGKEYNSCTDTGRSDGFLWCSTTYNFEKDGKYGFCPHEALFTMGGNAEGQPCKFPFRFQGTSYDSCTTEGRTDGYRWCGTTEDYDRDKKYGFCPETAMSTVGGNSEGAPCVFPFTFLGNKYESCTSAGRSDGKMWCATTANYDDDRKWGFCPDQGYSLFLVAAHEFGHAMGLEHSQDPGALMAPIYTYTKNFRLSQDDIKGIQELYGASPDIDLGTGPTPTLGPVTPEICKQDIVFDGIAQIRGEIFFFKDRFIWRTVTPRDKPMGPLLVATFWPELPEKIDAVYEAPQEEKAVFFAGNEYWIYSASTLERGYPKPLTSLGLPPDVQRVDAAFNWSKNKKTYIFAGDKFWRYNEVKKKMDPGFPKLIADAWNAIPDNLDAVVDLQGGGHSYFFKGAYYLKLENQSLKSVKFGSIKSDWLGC
assay.endpoint: IC50 (nM)

| compound | uom | readout.relation | observed.measurement |
| --- | --- | --- | --- |
| O=C(N[C@@H](CS(=O)(=O)c1ccc(Oc2ccccc2)cc1)C(=O)NO)c1ccnc2ccccc12 [Example 51] | nM | = | 0.3 |
| CC(=O)NC(CS(=O)(=O)c1ccc(Sc2ccccc2)cc1)C(=O)NO (centres unmarked) [Example 15b] | nM | = | 2.2 |
| CC(C)(C)OC(=O)NC(C)(CS(=O)(=O)c1ccc(NC(=O)c2ccccc2)cc1)C(=O)NO (centres unmarked) [Example 62] | nM | = | 23.9 |
| O=C(NC(CS(=O)(=O)c1ccc(Sc2ccccc2)cc1)C(=O)NO)c1ccncc1 (centres unmarked) [Example 28] | nM | = | 5.5 |
| CC(C)(C)OC(=O)N[C@@H](CS(=O)(=O)c1ccc(Oc2ccccc2)cc1)C(=O)NO [Example 33] | nM | = | 0.2 |
| CCN(CC)c1ccc(C(=O)N[C@@H](CS(=O)(=O)c2ccc(Oc3ccccc3)cc2)C(=O)NO)cc1 [Example 53] | nM | = | 0.3 |
| O=C(N[C@@H](CS(=O)(=O)c1ccc(Oc2ccccc2)cc1)C(=O)NO)c1ccncc1 [Example 44] | nM | = | 0.3 |
| Cc1ccc(S(=O)(=O)NC(CS(=O)(=O)c2ccc(Oc3ccccc3)cc2)C(=O)NO)cc1 (centres unmarked) [Example 12c] | nM | < | 0.1 |

Hello, the source for this data is patent US6583299B1, in case you need it.
